# test: Bioequivalence / pharmacokinetic study of compound febantel tablets after single oral dose, plasma levels by UPLC–MS/MS
# condition: beagle, dog, Kel (elimination rate constant), test product (T), single oral tablet, 38 beagle dogs, fasting, mean ± SD
reported_property: k el (s⁻¹)

COC(=O)Nc1nc2ccc([S+]([O-])c3ccccc3)cc2[nH]1 (stereo not shown) = 6.67e-05

---

# test: Stability of the analytes in beagle dog plasma (bench top, refrigerator, freeze–thaw, autosampler, short and long term storage)
# Type: physicochemical
# condition: long term, −80°C, 120 days; dog plasma; HQC
reported_property: Accuracy (%)

O=C(C1CCCCC1)N1CC(=O)N2CCc3ccccc3C2C1 (stereo not shown) [Praziquantel, praziquantel] = 91.14
COC(=O)Nc1nc2ccc(Sc3ccccc3)cc2[nH]1 [Fenbendazole, fenbendazole] = 101.31
CN1CCCN=C1/C=C/c1cccs1 [Pyrantel, pyrantel] = 97.25
COC(=O)Nc1nc2ccc([S+]([O-])c3ccccc3)cc2[nH]1 (stereo not shown) [Qxfendazole, oxfendazole] = 97.64

---

# test: Stability of the analytes in beagle dog plasma (bench top, refrigerator, freeze–thaw, autosampler, short and long term storage)
# Format: physicochemical
# condition: bench top, room temperature, 8 h; dog plasma; HQC; % of nominal concentration
reported_property: Accuracy (%)

COC(=O)Nc1nc2ccc(Sc3ccccc3)cc2[nH]1 [Fenbendazole, fenbendazole] = 91.58
CN1CCCN=C1/C=C/c1cccs1 [Pyrantel, pyrantel] = 90.68
COC(=O)Nc1nc2ccc([S+]([O-])c3ccccc3)cc2[nH]1 (stereo not shown) [Qxfendazole, oxfendazole] = 90.09
O=C(C1CCCCC1)N1CC(=O)N2CCc3ccccc3C2C1 (stereo not shown) [Praziquantel, praziquantel] = 95.65

---

# test: Bioequivalence / pharmacokinetic study of compound febantel tablets after single oral dose, plasma levels by UPLC–MS/MS
# condition: beagle, dog, AUC0–inf, reference product (R), single oral tablet, 38 beagle dogs, fasting, mean ± SD
reported_property: AUC(0-inf)

COC(=O)Nc1nc2ccc([S+]([O-])c3ccccc3)cc2[nH]1 (stereo not shown) [Qxfendazole, oxfendazole] = 2550 ng·h/mL

---

# test: Stability of the analytes in beagle dog plasma (bench top, refrigerator, freeze–thaw, autosampler, short and long term storage)
# Assay type: physicochemical
# condition: bench top, room temperature, 8 h; dog plasma; HQC (added 180 ng/mL PYR/OXF, 675 PRA, 90 FBT, 450 FEN); n = 5
reported_property: Mean stability sample ±SD

COC(=O)Nc1nc2ccc([S+]([O-])c3ccccc3)cc2[nH]1 (stereo not shown) = 162.16 ± 2.99 ng/mL
COC(=O)Nc1nc2ccc(Sc3ccccc3)cc2[nH]1 = 412.09 ± 6.95 ng/mL
O=C(C1CCCCC1)N1CC(=O)N2CCc3ccccc3C2C1 (stereo not shown) = 645.65 ± 11.69 ng/mL
CN1CCCN=C1/C=C/c1cccs1 = 163.22 ± 1.45 ng/mL

---

Reported Mean stability sample ±SD is given for each of the following molecules.
# test: Stability of the analytes in beagle dog plasma (bench top, refrigerator, freeze–thaw, autosampler, short and long term storage)
# Type: physicochemical
# condition: autosampler, 6°C, 55 h; processed plasma samples; HQC; n = 5
reported_property: Mean stability sample ±SD (ng/mL)

CN1CCCN=C1/C=C/c1cccs1 [Pyrantel, pyrantel] = 194.53
COC(=O)Nc1nc2ccc([S+]([O-])c3ccccc3)cc2[nH]1 (stereo not shown) [Qxfendazole, oxfendazole] = 192.72
COC(=O)Nc1nc2ccc(Sc3ccccc3)cc2[nH]1 [Fenbendazole, fenbendazole] = 457.91
O=C(C1CCCCC1)N1CC(=O)N2CCc3ccccc3C2C1 (stereo not shown) [Praziquantel, praziquantel] = 729.27
